Each recorded value in this set is attributed to patent US20240239788A1.

target: KRAS G12D / Ras binding domain of C-RAF (Homo sapiens (Human), UniProt P01116, G12D); test: RAS:RAF-RBD binding assay (cRaf), TR-FRET; settings: IC50 (nM) (cRaf), biotinylated KRAS G12D, GST-C-RAF RBD
Sequence (P01116 other isoform, or with tags, fused parts or gaps G12D (already in the parent)): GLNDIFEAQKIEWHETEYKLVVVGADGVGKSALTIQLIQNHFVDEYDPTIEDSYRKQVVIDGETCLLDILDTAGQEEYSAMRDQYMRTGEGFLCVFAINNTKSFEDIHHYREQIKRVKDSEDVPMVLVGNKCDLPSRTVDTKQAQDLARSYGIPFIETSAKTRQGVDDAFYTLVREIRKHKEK
Below, each of the compounds is paired with its reported IC50 value.
Quick note: give the figure in nM, leave out the unit.

Compound: Cc1cc2[nH]ncc2c(-c2c(F)cc3c(N4C[C@H]5CC[C@@](C)(C4)N5)nc(OCC4(CN5CC[C@@H](F)C5)CC4)nc3c2F)c1C(F)(F)F (single isomer, unassigned) [Ex 80a]
Reported Property: IC50
Obs Value: 4050

Compound: C[C@]12CC[C@H](CN(c3nc(OC[C@@]45CCCN4C[C@H](F)C5)nc4c(F)c(-c5cc(O)cc6cccc(Cl)c56)c(F)cc34)C1)N2 [Ex. 89]
Reported Property: IC50
Obs Value: 31.8

Lab note: next compound to report on.
Req: Field request: IC50 | item: CN(C)CC1(COc2nc(N3C[C@H]4CC[C@@](C)(C3)N4)c3cc(F)c(-c4cc(O)cc5ccccc45)c(F)c3n2)CC1 [Example 21]
Resp: 1980

* * *

Below, each of the compounds is paired with its reported IC50 value.
biological target: KRAS protein containing G12D mutation (Homo sapiens (Human), UniProt P01116, G12D); assay: SOS-catalyzed nucleotide exchange assay (GNE), TR-FRET; format: biochemical; details: biotinylated KRAS G12D, SOS and GTP, 60-minute incubation
Sequence (P01116 other isoform, or with tags, fused parts or gaps G12D (already in the parent)): as above
Quick note: give the figure in nM, leave out the unit.

Req: Field request: IC50 | item: Nc1cc2cccc(Cl)c2c(-c2c(F)cc3c(N4CC5CCC(C4)N5)nc(OC[C@@]45CCCN4C[C@H](F)C5)nc3c2F)n1 (single isomer, unassigned) [Ex. 189a]
Resp: 12.8

* * *

molecular target: KRAS protein containing G12D mutation (Homo sapiens (Human), UniProt P01116, G12D); experiment: SOS-catalyzed nucleotide exchange assay (GNE), TR-FRET; type: biochemical; settings: biotinylated KRAS G12D, SOS and GTP, 60-minute incubation
Reported Property: IC50 (nM)
Quick note: give the figure in nM, leave out the unit.

Take a look at these entries with their results.
Molecule: CN(C)CC1(COc2nc(N3C[C@@]4(C)CC[C@H]3CN4)c3cc(Cl)c(-c4cc(O)cc5ccccc45)c(F)c3n2)CC1 (single isomer, unassigned) [Example 38b]
Obs Value: 3400
//
Molecule: C#Cc1cccc2scc(-c3c(F)cc4c(N5CC6CC[C@@](C)(C5)N6)nc(OCC5(CN6CCOCC6)CC5)nc4c3F)c12 (single isomer, unassigned) [Ex. 147a]
Obs Value: 400

Lab note: next molecule to report on.
Req: Field request: IC50 | item: Nc1cc2cccc(Cl)c2c(-c2c(F)cc3c(N4CC5CCC(C4)N5)nc(OC[C@@]45CCCN4C[C@H](F)C5)nc3c2F)n1 (single isomer, unassigned) [Ex. 189b]
Resp: 11100

* * *

Target: KRAS protein containing G12D mutation (Homo sapiens (Human), UniProt P01116, G12D)
Assay: SOS-catalyzed nucleotide exchange assay (GNE), TR-FRET
Assay type: biochemical
Details: biotinylated KRAS G12D, SOS and GTP, 60-minute incubation
Experimental: Compounds are added to this complex and then after a 60-minute incubation time the mixture is treated with SOS and unlabeled GTP. Small molecule inhibitors stabilize the Bodipy-GDP complex whereas the untreated protein rapidly exchanges Bodipy-GDP for unlabeled GTP resulting in reduced TR-FRET signal. This solution is referred to as biotinylated KRAS G12D stock solution.
Counter-ions that a name gives are not always drawn.
Below, each of the molecules is paired with its reported IC50 value.
Quick note: give the figure in nM, leave out the unit.

Take a look at these entries with their results.
Molecule: Cc1cc2[nH]ncc2c(-c2c(F)cc3c(N4C[C@H]5CC[C@@](C)(C4)N5)nc(OC[C@]4(CN(C)C)CC4(F)F)nc3c2F)c1C(F)(F)F (single isomer, unassigned) [Ex 76b]
Unit Name: nM
IC50: 597
--
Molecule: Cc1c(Cl)cc2[nH]nc(C)c2c1-c1c(F)cc2c(N3C[C@H]4CC[C@@](C)(C3)N4)nc(OCC3(CN(C)C)CC3(F)F)nc2c1F (single isomer, unassigned)
Unit Name: nM
IC50: 39.9
--
Molecule: C[C@@]12CC[C@H](CN(c3nc(OC[C@@]45CCCN4C[C@H](F)C5)nc4c(F)c(-c5cc(O)c(Cl)c6cccc(Cl)c56)c(F)cc34)C1)N2 (single isomer, unassigned) [Ex. 174a]
Unit Name: nM
IC50: 3130
--
Molecule: Oc1cc(-c2c(F)cc3c(N4CC5CC(O)C(C4)N5)nc(OCC4(CN5CCOCC5)CC4)nc3c2F)c2ccccc2c1 (single isomer, unassigned) [Example 17]
Unit Name: nM
IC50: 52.1
--
Molecule: Nc1nc2c(-c3c(Cl)cc4c(N5CC6CCC(C5)N6)nc(OCC5(CN6CCOCC6)CC5)nc4c3F)ccc(F)c2s1
Unit Name: nM
IC50: 3.83
--
Molecule: Cc1cc2[nH]ncc2c(-c2c(F)cc3c(N4C[C@H]5CC[C@@](C)(C4)N5)nc(OC[C@]4(CN(C)C)CC4(F)F)nc3c2F)c1C
Unit Name: nM
IC50: 89.3
--
Molecule: Oc1cc(-c2c(Cl)cc3c(N4CC5CCC(C4)N5)nc(OCC4(F)CNC4)nc3c2F)c2ccccc2c1 [Example 110, TFA]
Unit Name: nM
IC50: 770
--
Molecule: C[C@@]12CC[C@@H](CN(c3nc(OCC4(CN5CC[C@@H](F)C5)CC4)nc4c3CCN(c3cccc5cccc(Br)c35)C4)C1)N2
Unit Name: nM
IC50: 116

Req: Field request: IC50 | item: OCC1(COc2nc(N3CC4CCC(C3)N4)c3cc(F)c(-c4cc(O)cc5ccccc45)c(F)c3n2)CNC1
Resp: 169
